- Target under test: Accfib (Agkistrodon contortrix contortrix, UniProt P28891)
- Sequence (P28891 whole entry, looked up): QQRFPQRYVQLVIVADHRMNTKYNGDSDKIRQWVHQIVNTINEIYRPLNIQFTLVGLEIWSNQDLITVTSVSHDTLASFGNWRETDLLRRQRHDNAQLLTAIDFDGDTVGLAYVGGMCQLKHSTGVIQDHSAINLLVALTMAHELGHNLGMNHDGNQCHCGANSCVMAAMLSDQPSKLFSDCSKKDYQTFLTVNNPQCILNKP
- Method description: biochemical
Endpoint label: Ki (mM)
API: value field is a number in mM; no unit string.

Data request: Entry CC(C)CC(C(=O)NO)C(=O)N[C@@H](C)C(=O)NCC(N)=O (stereo partly shown) [Zincov] has what Ki?
Data returned: 16
